- Target of assay: KRas G12C (Homo sapiens, UniProt P01116, G12C)
- Sequence (P01116 1-188 isoform P01116-2 G12C): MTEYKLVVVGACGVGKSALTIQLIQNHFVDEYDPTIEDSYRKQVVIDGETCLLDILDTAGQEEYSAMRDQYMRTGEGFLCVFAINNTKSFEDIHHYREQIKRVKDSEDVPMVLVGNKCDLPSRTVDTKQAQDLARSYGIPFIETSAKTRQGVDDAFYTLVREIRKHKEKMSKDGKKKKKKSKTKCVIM
- Test protocol: Inhibition of KRas G12C in NCI-H358 cells measured by phosphorylated ERK (Phospho-ERK)
- Condition details: 3 hours, 4 parameter fit, read-out: IC50 (pERK(Thr202/Tyr204) signal normalized with GAPDH)
Property: IC50

Record excerpt, results attached:
C=C(F)C(=O)N1CCN(c2nc(OCCc3nccn3C)nc3c2CCN(c2cccc4ccc(F)c(Cl)c24)C3)C[C@@H]1CC#N = 0.1 to 1000 nM
C=C(F)C(=O)N1CCN(c2nc(OCCN3CCCCCC3)nc3c2CCN(c2cccc4ccc(F)c(Cl)c24)C3)C[C@@H]1CC#N = 0.1 to 1000 nM
C=C(F)C(=O)N1CCN(c2nc(O[C@@H]3CCCC[C@H]3N(C)C)nc3c2CCN(c2cccc4ccc(F)c(Cl)c24)C3)C[C@@H]1CC#N = 1000 to 10000 nM

// C=C(F)C(=O)N1CCN(c2nc(OC[C@@H]3CCCN3CC)nc3c2CCN(c2cccc4ccc(F)c(Cl)c24)C3)C[C@@H]1CC#N : IC50 value = 0.1 to 1000 nM

Recorded result, C=C(F)C(=O)N1CCN(c2nc(OCC34CCCN3CCC4)nc3c2CCN(c2cccc4cccc(Cl)c24)C3)C[C@@H]1CC#N , IC50: 0.1 to 1000 nM

Value of IC50 reported for the molecule C=C(F)C(=O)N1CCN(c2nc(OC[C@@H]3C[C@@H](F)CN3C)nc3c2CCN(c2cccc4ccc(F)c(Cl)c24)C3)C[C@@H]1CC#N is 0.1 to 1000 nM

---

- Target of assay: KRas G12C (Homo sapiens, UniProt P01116, G12C)
- Test protocol: Inhibition of KRas G12C in NCI-H358 cells measured by phosphorylated ERK (Phospho-ERK)
- Condition details: 3 hours, 4 parameter fit, read-out: IC50 (pERK(Thr202/Tyr204) signal normalized with GAPDH)
Each entry below lists one item and its recorded IC50 value.

C=C(F)C(=O)N1CCN(c2nc(OCC3CC4(CC4)CN3C)nc3c2CCN(c2cccc4ccc(F)c(Cl)c24)C3)C[C@@H]1CC#N (stereo partly drawn) = 0.1 to 1000 nM
C=C(F)C(=O)N1CCN(c2nc(OCC3CCN3CC)nc3c2CCN(c2cccc4ccc(F)c(Cl)c24)C3)C[C@@H]1CC#N (stereo partly drawn) = 0.1 to 1000 nM
C=C(F)C(=O)N1CCN(c2nc(OCC3COCCO3)nc3c2CCN(c2cccc4ccc(F)c(Cl)c24)C3)C[C@@H]1CC#N (stereo partly drawn) = 0.1 to 1000 nM

Entry COC/C=C(\F)C(=O)N1CCN(c2nc(OCC34CCCN3CCC4)nc3c2CCN(c2cccc4ccc(F)c(Cl)c24)C3)C[C@@H]1CC#N ; IC50 = 0.1 to 1000 nM

Memo: C=C(F)C(=O)N1CCN(c2nc(OCC34CCCN3CCC4)nc3c2CCN(c2cccc(C)c2C(F)(F)F)C3)C[C@@H]1CC#N , reported IC50: 0.1 to 1000 nM

According to the records, this molecule C=C(F)C(=O)N1CCN(c2nc(OCC(C)N3C[C@@H](C)O[C@@H](C)C3)nc3c2CCN(c2cccc4ccc(F)c(Cl)c24)C3)C[C@@H]1CC#N (stereo partly drawn) displays IC50 of 1000 to 10000 nM

---

Catalogue of molecules with associated pIC50
- Target of assay: KRas G12C (Homo sapiens, UniProt P01116, G12C)
- Test protocol: Inhibition of KRas G12C in NCI-H358 cells measured by phosphorylated ERK (Phospho-ERK)
- Condition details: 3 hours, 4 parameter fit, read-out: IC50 (pERK(Thr202/Tyr204) signal normalized with GAPDH)
pIC50: −log10 of the molar value.

Record excerpt, results attached:
C=C(F)C(=O)N1CCN(c2nc(OC[C@@H]3CCCN3C)nc3c2CCN(c2cccc4ccc(F)c(C)c24)C3)C[C@@H]1CC#N = 6.00 to 10.00
C=C(F)C(=O)N1CCN(c2nc(OCC(C)N3CCCCC3)nc3c2CCN(c2cccc4ccc(F)c(Cl)c24)C3)C[C@@H]1CC#N (stereo partly drawn) = 6.00 to 10.00

What the record says about C=C(F)C(=O)N1CCN(c2nc(OCC34CCCN3CCC4)nc3c2CCN(c2cccc(F)c2C(F)(F)F)C3)C[C@@H]1CC#N : pIC50 is 6.00 to 10.00

---

- Target of assay: KRas G12C (Homo sapiens, UniProt P01116, G12C)
- Test protocol: Inhibition of KRas G12C in NCI-H358 cells measured by phosphorylated ERK (Phospho-ERK)
- Condition details: 3 hours, 4 parameter fit, read-out: IC50 (pERK(Thr202/Tyr204) signal normalized with GAPDH)
pIC50: −log10 of the molar value.
Property: pIC50

The examples below pair each entry with its known result.
C=C(F)C(=O)N1CCN(c2nc(OC[C@@H]3C[C@@H](F)CN3C(C)C)nc3c2CCN(c2cccc4ccc(F)c(Cl)c24)C3)C[C@@H]1CC#N = 6.00 to 10.00
C=C(F)C(=O)N1CCN(c2nc(OCC3CCC(C)(C)N3C)nc3c2CCN(c2cccc4ccc(F)c(Cl)c24)C3)C[C@@H]1CC#N (stereo partly drawn) = 6.00 to 10.00
C=C(F)C(=O)N1CCN(c2nc(OCC34CCCN3CCC4)nc3c2CCN(c2cccc4cccc(Br)c24)C3)C[C@@H]1CC#N = 6.00 to 10.00
C=C(F)C(=O)N1CCN(c2nc(OC[C@H]3CN(C)CCO3)nc3c2CCN(c2cccc4ccc(F)c(Cl)c24)C3)C[C@@H]1CC#N = 6.00 to 10.00
C=C(F)C(=O)N1CCN(c2nc(OC[C@@H]3CCCN3C)nc3c2CCN(c2cccc4ccc(Cl)c(Cl)c24)C3)C[C@@H]1CC#N = 5.00 to 6.00

Now turn to the next compound.
For this compound ( C=C(F)C(=O)N1CCN(c2nc(OC[C@@H]3CC4CCN3C4)nc3c2CCN(c2cccc4ccc(F)c(Cl)c24)C3)C[C@@H]1CC#N (stereo partly drawn) ), measured pIC50 is 6.00 to 10.00

---

Some compounds, each annotated with its measured IC50.
- Target of assay: KRas G12C (Homo sapiens, UniProt P01116, G12C)
- Test protocol: Inhibition of KRas G12C in NCI-H358 cells measured by phosphorylated ERK (Phospho-ERK)
- Condition details: 3 hours, 4 parameter fit, read-out: IC50 (pERK(Thr202/Tyr204) signal normalized with GAPDH)

In the examples that follow, each entry is paired with its recorded IC50.
C=C(F)C(=O)N1CCN(c2nc(OCC3N(C)CC3(C)C)nc3c2CCN(c2cccc4ccc(F)c(Cl)c24)C3)C[C@@H]1CC#N (stereo partly drawn) = 0.0001 to 1 µM
C=C(F)C(=O)N1CCN(c2nc(OC3CCN(C4CCOCC4)CC3)nc3c2CCN(c2cccc4cccc(Cl)c24)C3)C[C@@H]1CC#N = 1 to 10 µM
C=C(F)C(=O)N1CCN(c2nc(OCCCN3C[C@@H]4C[C@H]3CO4)nc3c2CCN(c2cccc4ccc(F)c(Cl)c24)C3)C[C@@H]1CC#N = 0.0001 to 1 µM
C=C(F)C(=O)N1CCN(c2nc(OC[C@@H]3[C@@H]4CC[C@@H](C4)N3C)nc3c2CCN(c2cccc4ccc(F)c(Cl)c24)C3)C[C@@H]1CC#N = 0.0001 to 1 µM
C=C(F)C(=O)N1CCN(c2nc(OCC34COCN3COC4)nc3c2CCN(c2cccc4ccc(F)c(Cl)c24)C3)C[C@@H]1CC#N = 0.0001 to 1 µM

Now let's try a different one.
Notebook: C=C(F)C(=O)N1CCN(c2nc(OCC34CCC(CC3)N4C)nc3c2CCN(c2cccc4ccc(F)c(Cl)c24)C3)C[C@@H]1CC#N , IC50 read as 0.0001 to 1 µM

---

- Target of assay: KRas G12C (Homo sapiens, UniProt P01116, G12C)
- Test protocol: Inhibition of KRas G12C in NCI-H358 cells measured by phosphorylated ERK (Phospho-ERK)
- Condition details: 3 hours, 4 parameter fit, read-out: IC50 (pERK(Thr202/Tyr204) signal normalized with GAPDH)
pIC50: −log10 of the molar value.
Entries annotated with measured pIC50

Example cases with answers are listed next.
C=C(F)C(=O)N1CCN(c2nc(OC[C@@H]3CCCN3C)nc3c2CCN(c2cccc4ccc(F)c(F)c24)C3)C[C@@H]1CC#N [Example 136] = 6.00 to 10.00
C=C(F)C(=O)N1CCN(c2nc(OCCN(C)CC(F)(F)F)nc3c2CCN(c2cccc4ccc(F)c(Cl)c24)C3)C[C@@H]1CC#N [Example 148] = 5.00 to 6.00
C=C(F)C(=O)N1CCN(c2nc(OCCNCC(F)(F)F)nc3c2CCN(c2cccc4ccc(F)c(Cl)c24)C3)C[C@@H]1CC#N [Example 200] = 6.00 to 10.00
C=C(F)C(=O)N1CCN(c2nc(OCC3CN(C)C3)nc3c2CCN(c2cccc4ccc(F)c(Cl)c24)C3)C[C@@H]1CC#N [Example 173] = 6.00 to 10.00
C=C(F)C(=O)N1CCN(c2nc(OC[C@@H]3C[C@@H](OC)CN3)nc3c2CCN(c2cccc4ccc(F)c(Cl)c24)C3)C[C@@H]1CC#N [Example 210] = 6.00 to 10.00

For record C=C(F)C(=O)N1CCN(c2nc(OC3CCCN(C(C)C)C3)nc3c2CCN(c2cccc4ccc(F)c(Cl)c24)C3)C[C@@H]1CC#N (stereo partly drawn) [Example 152] the listed pIC50 is 5.00 to 6.00
